# Target or system: Amine oxidase [flavin-containing] A (Homo sapiens)
# Sequence (P21397 whole entry): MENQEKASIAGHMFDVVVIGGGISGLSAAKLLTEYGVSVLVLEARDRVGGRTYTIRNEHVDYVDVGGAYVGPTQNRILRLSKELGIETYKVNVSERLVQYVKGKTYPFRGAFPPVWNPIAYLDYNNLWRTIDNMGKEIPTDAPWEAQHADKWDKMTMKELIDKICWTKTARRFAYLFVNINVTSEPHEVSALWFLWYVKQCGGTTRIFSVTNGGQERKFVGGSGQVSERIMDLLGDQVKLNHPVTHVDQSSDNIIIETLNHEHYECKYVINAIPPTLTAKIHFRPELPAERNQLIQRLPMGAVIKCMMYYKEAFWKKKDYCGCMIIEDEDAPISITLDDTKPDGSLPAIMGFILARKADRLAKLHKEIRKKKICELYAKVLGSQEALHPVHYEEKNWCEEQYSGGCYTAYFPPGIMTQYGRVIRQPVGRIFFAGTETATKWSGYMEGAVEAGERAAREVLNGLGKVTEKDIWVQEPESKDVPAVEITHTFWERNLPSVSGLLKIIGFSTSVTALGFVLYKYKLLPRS
Listed here are molecules together with their documented pIC50.
Note on units: pIC50 is unitless, being -log10 of a concentration expressed in mol/L.

Examples with answers:
Nc1n[nH]c(NCc2ccccc2Oc2ccc(F)cc2)n1
4.05
Nc1n[nH]c(NCc2ccccc2Oc2ccc(-c3ccccc3)cc2)n1
4.30
CSc1ccc(Oc2ccccc2CNc2nc(N)n[nH]2)cc1
4.42

Query molecule follows.
Return pIC50 measured with Amine oxidase [flavin-containing] A (Homo sapiens) given this molecule: Nc1n[nH]c(NCc2ccccc2Oc2ccccc2)n1 4.30

###

# Target or system: Spermine oxidase (Homo sapiens, UniProt Q9NWM0)
# Sequence (Q9NWM0 whole entry): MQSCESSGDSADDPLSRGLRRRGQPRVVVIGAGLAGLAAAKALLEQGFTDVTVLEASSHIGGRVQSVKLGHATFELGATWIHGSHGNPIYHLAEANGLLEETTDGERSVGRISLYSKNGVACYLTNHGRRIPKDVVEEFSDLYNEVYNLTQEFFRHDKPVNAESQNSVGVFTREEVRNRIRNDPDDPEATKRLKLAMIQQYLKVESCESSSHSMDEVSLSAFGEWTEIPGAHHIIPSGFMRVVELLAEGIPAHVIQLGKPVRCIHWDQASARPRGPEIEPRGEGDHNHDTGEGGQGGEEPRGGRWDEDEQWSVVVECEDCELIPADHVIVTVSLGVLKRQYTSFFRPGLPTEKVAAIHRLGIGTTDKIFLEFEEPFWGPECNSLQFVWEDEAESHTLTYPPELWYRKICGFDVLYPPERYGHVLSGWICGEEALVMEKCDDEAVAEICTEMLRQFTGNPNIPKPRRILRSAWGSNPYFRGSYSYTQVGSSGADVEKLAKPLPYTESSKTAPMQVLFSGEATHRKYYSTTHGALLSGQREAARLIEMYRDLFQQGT
# Protocol: Inhibition of SMOX (unknown origin) assessed as decrease in spermidine formation using spermine as substrate at 10 uM treated with compound 2 mins prior to substrate addition followed by further incubation for 1 hr by HPLC analysis relative to control
Listed here are compounds together with their documented inhibition.
// return numeric value only (unit: %, not printed)

CSc1ccc(Oc2ccccc2CNc2nc(N)n[nH]2)cc1
0
Nc1n[nH]c(NCc2ccccc2Oc2ccc(-c3ccccc3)cc2)n1
25.7
CC(C)(C)c1ccc(Oc2ccccc2CNc2nc(N)n[nH]2)cc1
0

Query compound follows.
Need inhibition of COc1cc(OC)cc(Oc2ccccc2CNc2nc(N)n[nH]2)c1 , thanks. 0

###

# Target or system: Spermine oxidase (Homo sapiens, UniProt Q9NWM0)
# Protocol: Inhibition of SMOX (unknown origin) assessed as decrease in spermidine formation using spermine as substrate at 10 uM treated with compound 2 mins prior to substrate addition followed by further incubation for 1 hr by HPLC analysis relative to control
Listed here are compounds together with their documented inhibition.
// return numeric value only (unit: %, not printed)

Examples with answers:
C=C=CCNCCCCNCC=C=C
4.8
Nc1n[nH]c(NCc2ccccc2Oc2ccc3ccccc3c2)n1
0
N[C@@H]1C[C@H]1c1ccccc1.N[C@H]1C[C@@H]1c1ccccc1
0

Need inhibition of Nc1nnc(NCc2c(Cl)cccc2Oc2ccccc2)[nH]1 , thanks. 28

Need inhibition of Nc1n[nH]c(NCc2c(Cl)cccc2Oc2ccc3ccccc3c2)n1 , thanks. 23.6

Need inhibition of Nc1n[nH]c(NCc2ccccc2Oc2ccccc2)n1 , thanks. 0

###

# Target or system: MAOB (amine oxidase [flavin-containing] B) (Homo sapiens)
# Sequence (P27338 whole entry): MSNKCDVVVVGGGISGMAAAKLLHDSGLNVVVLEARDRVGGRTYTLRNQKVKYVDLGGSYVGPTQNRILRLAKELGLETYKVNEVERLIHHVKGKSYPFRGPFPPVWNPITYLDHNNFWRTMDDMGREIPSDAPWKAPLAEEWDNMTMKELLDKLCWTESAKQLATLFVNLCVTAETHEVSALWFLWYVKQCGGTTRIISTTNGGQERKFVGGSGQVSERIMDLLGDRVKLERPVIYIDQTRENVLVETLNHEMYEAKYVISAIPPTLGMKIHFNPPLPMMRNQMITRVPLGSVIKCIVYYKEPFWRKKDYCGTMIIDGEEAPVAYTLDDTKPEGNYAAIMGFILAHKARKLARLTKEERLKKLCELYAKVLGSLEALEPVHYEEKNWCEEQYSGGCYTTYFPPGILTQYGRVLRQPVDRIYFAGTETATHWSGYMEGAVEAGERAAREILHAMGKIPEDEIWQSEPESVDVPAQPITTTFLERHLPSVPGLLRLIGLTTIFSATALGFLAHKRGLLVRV
# Protocol: Inhibition of MAOB (unknown origin) using luminogenic substrate at 10 uM incubated for 1 hr by luminescence based assay relative to control
# Condition context: MAOB enzyme (unknown origin), probe luminogenic substrate
Listed here are molecules together with their documented inhibition at 1 h, 10 µM.
// return numeric value only (unit: %, not printed)

Cc1cc(C)cc(Oc2ccccc2CNc2nc(N)n[nH]2)c1
83.4

Query molecule follows.
Return inhibition at 1 h, 10 µM measured with MAOB (amine oxidase [flavin-containing] B) (Homo sapiens) given this molecule: Cc1cccc(Oc2ccccc2CNc2nc(N)n[nH]2)c1C 68.6

###

# Protocol: cells
# Condition context: Homo sapiens, MIA PaCa-2, 72 h
# Description: Antiproliferative activity against human MiaPaCa cells assessed as reduction in cell growth incubated for 72 hrs by MTS assay
Listed here are compounds together with their documented IC50.
// return numeric value only (unit: µM, not printed)

Nc1ccn([C@@H]2O[C@H](CO)[C@@H](O)C2(F)F)c(=O)n1
1.86

Query compound follows.
Need IC50 of Nc1nnc(NCc2c(Cl)cccc2Oc2ccccc2)[nH]1 , thanks. 2.66

###

# Target or system: Spermine oxidase (Homo sapiens)
# Protocol: Inhibition of SMOX (unknown origin) assessed as decrease in spermidine formation using spermine as substrate at 10 uM treated with compound 2 mins prior to substrate addition followed by further incubation for 1 hr by HPLC analysis relative to control
Attribute measured: inhibition

Return inhibition measured with Spermine oxidase (Homo sapiens) given this compound: Nc1n[nH]c(NCc2ccccc2Oc2ccc(F)cc2)n1 0%

Return inhibition measured with Spermine oxidase (Homo sapiens) given this compound: Nc1n[nH]c(NCc2ccccc2Oc2ccc(Br)cc2C(F)(F)F)n1 0%

Return inhibition measured with Spermine oxidase (Homo sapiens) given this compound: Nc1n[nH]c(NCc2c(Cl)cccc2Oc2cccc3ccccc23)n1 19%

Return inhibition measured with Spermine oxidase (Homo sapiens) given this compound: Cc1cccc(Oc2ccccc2CNc2nc(N)n[nH]2)c1C 0%

Return inhibition measured with Spermine oxidase (Homo sapiens) given this compound: Cc1ccc(C(C)C)c(Oc2ccccc2CNc2nc(N)n[nH]2)c1 13.9%

Return inhibition measured with Spermine oxidase (Homo sapiens) given this compound: Cc1cc(C)cc(Oc2ccccc2CNc2nc(N)n[nH]2)c1 0%

###

Entries below carry reported IC50 on Spermine oxidase (Homo sapiens).

COc1cc(OC)cc(Oc2ccccc2CNc2nc(N)n[nH]2)c1
> 200 µM
Nc1nnc(NCc2c(Cl)cccc2Oc2ccccc2)[nH]1
178 µM
Cc1cc(C)cc(Oc2ccccc2CNc2nc(N)n[nH]2)c1
> 200 µM
Nc1n[nH]c(NCc2c(Cl)cccc2Oc2cccc3ccccc23)n1
148 µM
CSc1ccc(Oc2ccccc2CNc2nc(N)n[nH]2)cc1
> 200 µM
Nc1n[nH]c(NCc2ccccc2Oc2ccc(Br)cc2C(F)(F)F)n1
121 µM

Need IC50 of Nc1n[nH]c(NCc2ccccc2Oc2ccccc2)n1 , thanks. > 200 µM

Need IC50 of CC(C)(C)c1ccc(Oc2ccccc2CNc2nc(N)n[nH]2)cc1 , thanks. > 200 µM

###

# Target or system: LSD1/CoREST complex (Homo sapiens, UniProt O60341)
# Protocol: Inhibition of recombinant LSD1/CoREST (unknown origin) incubated for 30 mins to 4 hrs by fluorescence based assay
Attribute measured: IC50

Need IC50 of C=C=CCNCCCCNCC=C=C , thanks. > 100000 nM

Need IC50 of Nc1n[nH]c(NCc2c(Cl)cccc2Oc2cccc3ccccc23)n1 , thanks. 190 to 230 nM

###

Listed here are molecules together with their documented inhibition at 1 h, 10 µM.
# Target or system: MAOB (amine oxidase [flavin-containing] B) (Homo sapiens)
# Protocol: Inhibition of MAOB (unknown origin) using luminogenic substrate at 10 uM incubated for 1 hr by luminescence based assay relative to control
# Condition context: MAOB enzyme (unknown origin), probe luminogenic substrate
// return numeric value only (unit: %, not printed)

Nc1n[nH]c(NCc2ccccc2Oc2ccc(Br)cc2C(F)(F)F)n1
90.1
Nc1n[nH]c(NCc2c(Cl)cccc2Oc2ccc3ccccc3c2)n1
0
Nc1n[nH]c(NCc2ccccc2Oc2ccccc2)n1
18.8
Nc1n[nH]c(NCc2ccccc2Oc2ccc(F)cc2)n1
40.7
Nc1n[nH]c(NCc2c(Cl)cccc2Oc2cccc3ccccc23)n1
7.12

Need inhibition at 1 h, 10 µM of COc1cc(OC)cc(Oc2ccccc2CNc2nc(N)n[nH]2)c1 , thanks. 17.1

Need inhibition at 1 h, 10 µM of Cc1ccc(C(C)C)c(Oc2ccccc2CNc2nc(N)n[nH]2)c1 , thanks. 49.7

Need inhibition at 1 h, 10 µM of Nc1n[nH]c(NCc2ccccc2Oc2ccc(-c3ccccc3)cc2)n1 , thanks. 26.4

Need inhibition at 1 h, 10 µM of Nc1nnc(NCc2c(Cl)cccc2Oc2ccccc2)[nH]1 , thanks. 0

Need inhibition at 1 h, 10 µM of CSc1ccc(Oc2ccccc2CNc2nc(N)n[nH]2)cc1 , thanks. 31.7

Need inhibition at 1 h, 10 µM of Nc1n[nH]c(NCc2ccccc2Oc2ccc3ccccc3c2)n1 , thanks. 81.6

Need inhibition at 1 h, 10 µM of CC(C)(C)c1ccc(Oc2ccccc2CNc2nc(N)n[nH]2)cc1 , thanks. 32.3

Need inhibition at 1 h, 10 µM of C=C=CCNCCCCNCC=C=C , thanks. 0

###

# Protocol: cells
# Condition context: Homo sapiens, MIA PaCa-2, 72 h
pIC50: −log10 of the molar value.
Attribute measured: pIC50

Examples with answers:
Nc1n[nH]c(NCc2ccccc2Oc2ccc(-c3ccccc3)cc2)n1
3.70 to 4.52
Nc1n[nH]c(NCc2ccccc2Oc2ccc(Br)cc2C(F)(F)F)n1
3.70 to 4.52

Query compound follows.
Need pIC50 of Nc1n[nH]c(NCc2c(Cl)cccc2Oc2cccc3ccccc23)n1 , thanks. 3.70 to 4.52
